Just for reference, patent US8853424B2 is where these values come from.

system: transglutaminase (TGase); assay: Measurement of TG (TGase inhibitory activity, monodansyl cadaverine / N,N-dimethylcasein fluorescence, FDSS 3000); type: biochemical; details: TGase inhibitory activity value, Table 1
Task for the reader: assign each of the following compounds its reported TGase activity remaining (% of DMSO control = 100).
Numbers only.

Check out these entries, answers already filled in.
compound | test-value
NCCOB(c1ccccc1)c1ccc(B(OCCN)c2ccccc2)cc1 | 93
Cc1ccc(B(Sc2ccccc2N)c2ccc(C)c(Cl)c2)cc1Cl | 12
NC(=O)C1NCCNC1C(=O)OB(c1ccccc1)c1ccccc1 (centres unmarked) | 92
Cc1ccc(B(OCCN2CCCCC2)c2ccc(C)c(Cl)c2)cc1Cl | 35
NC(=O)CCC(N)C(=O)OB(c1ccccc1)c1ccc(Oc2ccc(B(OC(=O)C(N)CCC(N)=O)c3ccc(CO)cc3)cc2)cc1 (centres unmarked) | 41

Here are 3 compounds. What values of TGase activity remaining (% of DMSO control = 100) were reported for them?
1. CC1[NH2+][B-](c2ccccc2)(c2ccccc2)OC1=O (centres unmarked) [Example 258, diphenyl(alaninate-O,N)borane]
2. OB(c1ccc(Oc2ccc(B(O)c3ccc(C(F)(F)F)cc3)cc2)cc1)c1ccc(C(F)(F)F)cc1
3. CCCCB(OCCN)c1ccccc1 [Example 112, aminoethyl normal-butyl phenylborinate]

### Response
1. 110
2. 92
3. 123
